Give measured IC50 for each item. Keep answers brief.
# Test system: NCI-H460
# Assay Name: Inhibitory activity against NCI-H460 cell line using MTT assay
# Assay type: functional, cell-based
# Condition Set: Homo sapiens
Numbers only, in nM.

The cases that follow already have their IC50 on record.
Compound	Measured Target	Value Unit	Recorded Value
COc1cc(NS(C)(=O)=O)ccc1Nc1c2ccccc2nc2ccccc12 [AMSACRINE]	NCI-H460	nM	60
Cc1ccc2c(c1)-c1cccc3nc4ccccc4c(c13)N2	NCI-H460	nM	710
c1ccc2c(c1)Nc1cccc3ccnc-2c13	NCI-H460	nM	2060
COc1cccc2c1C(=O)c1c(O)c3c(c(O)c1C2=O)C[C@@](O)(C(=O)CO)C[C@@H]3O[C@H]1C[C@H](N)[C@H](O)[C@H](C)O1 [DOXORUBICIN]	NCI-H460	nM	10
COc1cc([C@@H]2c3cc4c(cc3[C@@H](O[C@@H]3O[C@@H]5CO[C@@H](C)O[C@H]5[C@H](O)[C@H]3O)[C@H]3COC(=O)[C@H]23)OCO4)cc(OC)c1O [ETOPOSIDE]	NCI-H460	nM	100
Clc1ccc2c(c1)-c1cccc3nc4ccccc4c(c13)N2	NCI-H460	nM	3900

Each compound below has a reported value. Please supply its IC50.
1. N#CCCCc1cc2cccc3c2c(n1)-c1ccccc1N3
2. Nc1ccc2c(c1)Nc1c3ccccc3nc3cccc-2c13
3. N#CCCCc1cnc2c3c(cccc13)Nc1ccccc1-2
4. c1ccc2c(c1)Nc1cccc3cc4[n+](c-2c13)CCC4
5. c1ccc2c(c1)Nc1c3ccccc3nc3cccc-2c13

1: 1170; 2: 70; 3: 2560; 4: 180; 5: 520
